system: MRSA clinical isolates; test: MIC by broth microdilution against multidrug-resistant MRSA clinical isolates; assay type: cell-based, Staphylococcus aureus; conditions: Staphylococcus aureus, MRSA, Figure 6, MRSA strain 48; read-out: MIC against 8 MRSA strains
Entries annotated with measured MIC

{"molecular.string": "CCOC(=O)c1[nH]c2cc(F)ccc2c1/N=N/N1CCCC1", "units.symbol": "µg/mL", "MIC": 0.25}
{"molecular.string": "CCOC(=O)c1[nH]c2cc(F)ccc2c1/N=N/N1CCCN(C)CC1", "units.symbol": "µg/mL", "MIC": 1}
{"molecular.string": "CC(=O)NC[C@H]1CN(c2ccc(N3CCOCC3)c(F)c2)C(=O)O1", "units.symbol": "µg/mL", "MIC": 2}
{"molecular.string": "CCOC(=O)c1[nH]c2cc(F)ccc2c1/N=N/N1CCN(C)CC1", "units.symbol": "µg/mL", "MIC": 0.5}
{"molecular.string": "CCOC(=O)c1[nH]c2cc(F)ccc2c1/N=N/N(C)CCc1ccccn1", "units.symbol": "µg/mL", "MIC": 0.5}
{"molecular.string": "CCOC(=O)c1[nH]c2cc(F)ccc2c1/N=N/N1CCC(C)CC1", "units.symbol": "µg/mL", "MIC": 0.25}

---

assay: Stability in rat liver microsomes; format: in vitro ADME; conditions: pH 7.4; rat liver microsomes, NADPH

{"molecular.string": "CCOC(=O)c1[nH]c2cc(F)ccc2c1/N=N/N1CCCC1", "units.symbol": "µL/min/mg", "microsomal CLint": 2140}

---

test system: Caco-2 cells; assay: Caco-2 cell monolayer permeability; type: in vitro ADME, human; settings: Caco-2, first value: A-B / apical; listed as ВХ-SI043
measured.metric: Mass balance (%)

{"molecular.string": "CCOC(=O)c1[nH]c2cc(F)ccc2c1/N=N/N1CCCC1", "quantitative.result": 49}

---

assay: Stability in human liver microsomes; assay type: in vitro ADME; settings: pH 7.4, NADPH
measured.metric: microsomal CLint

{"molecular.string": "CCOC(=O)c1[nH]c2cc(F)ccc2c1/N=N/N1CCCC1", "result": "1020 µL/min/mg"}

---

experiment: Solubility in water by HPLC; assay type: physicochemical; conditions: water, kinetic from dmso stock, read-out: Solubility in water, molar concentration

{"molecular.string": "CCOC(=O)c1c(/N=N/N(CC)CC)c2cccnc2n1C", "solubility at 5 min, µM": 290}
{"molecular.string": "CCOC(=O)c1[nH]c2cc(F)ccc2c1/N=N/N1CCC(C)CC1", "solubility at 5 min, µM": 10}
{"molecular.string": "CCOC(=O)c1[nH]c2ccccc2c1/N=N/N1CCN(C)CC1", "solubility at 5 min, µM": 280}
{"molecular.string": "CCOC(=O)c1[nH]c2ccccc2c1/N=N/N1CCCN(C)CC1", "solubility at 5 min, µM": 210}
{"molecular.string": "CCOC(=O)c1[nH]c2cc(F)ccc2c1/N=N/N1CCN(C)CC1", "solubility at 5 min, µM": 350}
{"molecular.string": "CCOC(=O)c1[nH]c2cc(F)ccc2c1/N=N/N(C)Cc1ccccc1", "solubility at 5 min, µM": 50}
{"molecular.string": "CCOC(=O)c1[nH]c2cc(F)ccc2c1/N=N/N1CCCN(C)CC1", "solubility at 5 min, µM": 90}
{"molecular.string": "CCOC(=O)c1[nH]c2ncccc2c1/N=N/N1CCC(C)CC1", "solubility at 5 min, µM": 1}
{"molecular.string": "CCOC(=O)c1[nH]c2ccccc2c1/N=N/N(C)Cc1ccccc1", "solubility at 5 min, µM": 90}
{"molecular.string": "CCOC(=O)c1[nH]c2ncccc2c1/N=N/N1CCN(C)CC1", "solubility at 5 min, µM": 53}
{"molecular.string": "CCOC(=O)c1[nH]c2cc(F)ccc2c1/N=N/N(C)CCc1ccccn1", "solubility at 5 min, µM": 90}
{"molecular.string": "CCOC(=O)c1[nH]c2cc(F)ccc2c1/N=N/N1CCOCC1", "solubility at 5 min, µM": 14}
{"molecular.string": "CCOC(=O)c1[nH]c2ccccc2c1/N=N/N(C)CCN(C)C", "solubility at 5 min, µM": 1490}
{"molecular.string": "CCOC(=O)c1c(/N=N/N(C)CCN(C)C)c2cccnc2n1C", "solubility at 5 min, µM": 2780}
{"molecular.string": "CCOC(=O)c1[nH]c2cc(F)ccc2c1/N=N/N(CC)CC", "solubility at 5 min, µM": 30}
{"molecular.string": "CCOC(=O)c1[nH]c2ccccc2c1/N=N/N1CCC(C)CC1", "solubility at 5 min, µM": 4}
{"molecular.string": "CCOC(=O)c1c(/N=N/N2CCN(Cc3ccccc3)CC2)c2cccnc2n1C", "solubility at 5 min, µM": 10}
{"molecular.string": "CCOC(=O)c1c(/N=N/N(C)Cc2ccccc2)c2cccnc2n1C", "solubility at 5 min, µM": 20}
{"molecular.string": "CCOC(=O)c1[nH]c2cc(F)ccc2c1/N=N/N1CCN(Cc2ccccc2)CC1", "solubility at 5 min, µM": 1}
